FYI, the data here is from ChEMBL document CHEMBL3433997.

Would you mind telling me the reported inhibition of each entry?
- measured_on: Solute carrier family 2, facilitated glucose transporter member 1 (Homo sapiens)
- experiment_description: ST_JUDE_LEISH: Cytotoxicity at 2uM final concentration against transgenic Leishmania Mexicana promastigotes LmGLUT1 that are glucose transport deficient and complemented with the human glucose transporter GLUT1. Activity is measured by DNA content using SYBR green in vitro
- Type: functional
Give the number; % is assumed, so skip it.

get_value(item= `CCn1c(Sc2ccc(C#N)c([N+](=O)[O-])c2)nnc1-c1ccc(OC)cc1` , readout=inhibition) returns 2.25

get_value(item= CC(=NO)C1=C(O)C(c2ccccc2)N(c2ccccc2)C1=O (stereo unspecified) , readout=inhibition) returns 1.86

get_value(item= `Cc1cc(OCCCN2CCC(NS(=O)(=O)c3cc(Br)c(Cl)s3)CC2)c2ccccc2n1` , readout=inhibition) returns -1.11

get_value(item= `CC(C)(Cc1ccc(Cl)cc1)NCCCCCCNCCc1ccc(O)c(O)c1` , readout=inhibition) returns -0.5

get_value(item= `Cc1ccc(NCc2cccc(F)c2)cc1S(=O)(=O)N[C@@H]1CCN(C#N)C1` , readout=inhibition) returns 7.1

get_value(item= `[O-][S+]1c2ccccc2Sc2ccccc21` , readout=inhibition) returns 2.27

###

- measured_on: Glucose transporter (Leishmania mexicana) (UniProt O61059)
- experiment_description: ST_JUDE_LEISH: Cytotoxicity at 2uM final concentration against transgenic Leishmania Mexicana promastigotes LmGT2 that are glucose transport deficient and complemented with the L. Mexicana glucose transporter 2. Activity is measured by DNA content using SYBR green in vitro
- Format: functional
measured_property: inhibition (%)
Give the number; % is assumed, so skip it.

get_value(item= `Cc1cccc2nc(-c3cccc(-c4ccc(NC(=O)COc5ccccc5C(N)=O)cc4)c3)[nH]c12` , readout=inhibition) returns 5.02

get_value(item= `CCNCc1ccc(-c2cccc(-c3nc4ccccc4[nH]3)c2)cc1` , readout=inhibition) returns 3.49

get_value(item= `COC(=O)c1ccc(NC(=O)c2ccc(CCN3CCC(c4nc(COCC(F)(F)F)c(-c5ccc(F)cc5)o4)CC3)cc2)cc1` , readout=inhibition) returns 2.38

get_value(item= `CCCCCCOc1ccc(/C(N)=N\Cc2ccccc2)c2c1CCCC2` , readout=inhibition) returns 0.11

get_value(item= `NCCNc1ccnc2cc(Cl)ccc12` , readout=inhibition) returns 1.05

get_value(item= `O=C(NC1CC1)c1ccc(N2CCC(Cc3ccccc3)CC2)nc1` , readout=inhibition) returns -1.16

get_value(item= `N#Cc1ccc(N/C(=N\c2cccc(Cl)c2Cl)NC2Cc3ccccc3C2)c(O)c1` , readout=inhibition) returns 3.97

get_value(item= `Cc1cc2c(NC(=O)NC3CCN(CCc4ccccc4Cl)CC3)cccc2cn1` , readout=inhibition) returns 1.68

get_value(item= `COc1cc(NC(=O)c2cccs2)c(OC)cc1NC(=O)Nc1cccc(Cl)c1` , readout=inhibition) returns 2.28

get_value(item= `Clc1ccc2c(NN=Cc3ccco3)ccnc2c1` , readout=inhibition) returns 0.47

###

Would you mind telling me the reported inhibition of each entry?
- measured_on: Solute carrier family 2, facilitated glucose transporter member 1 (Homo sapiens)
- experiment_description: ST_JUDE_LEISH: Cytotoxicity at 2uM final concentration against transgenic Leishmania Mexicana promastigotes LmGLUT1 that are glucose transport deficient and complemented with the human glucose transporter GLUT1. Activity is measured by DNA content using SYBR green in vitro
- Type: functional
Give the number; % is assumed, so skip it.

Record `O=C(c1cc2ccccc2o1)N1CCc2cc3nccc(N4CCN5CCC[C@H]5C4)c3cc21` has Solute carrier family 2, facilitated glucose transporter member 1 (Homo sapiens) inhibition equal to 3.95

Record `Cc1noc(-c2ccc(NC[C@@H](C)NC[C@H](O)c3cccc(Cl)c3)cc2)n1` has Solute carrier family 2, facilitated glucose transporter member 1 (Homo sapiens) inhibition equal to 3.79

Record `O=C1NC(=S)N/C1=C/C=C/c1ccc([N+](=O)[O-])o1` has Solute carrier family 2, facilitated glucose transporter member 1 (Homo sapiens) inhibition equal to 27.9

Record `C[C@@H](N)C#Cc1cc2c(Nc3ccc(OCc4cccc(F)c4)c(Cl)c3)ncnc2s1` has Solute carrier family 2, facilitated glucose transporter member 1 (Homo sapiens) inhibition equal to 2.5

Record `CCCCCCc1cc2cc(-c3csc(C=Cc4ccccc4)n3)c(=O)oc2cc1O` has Solute carrier family 2, facilitated glucose transporter member 1 (Homo sapiens) inhibition equal to 9.95

Record `CN(C)CCOc1cc(NC(=O)Nc2ccc(-c3ccncc3)c3ccccc23)ccc1I` has Solute carrier family 2, facilitated glucose transporter member 1 (Homo sapiens) inhibition equal to 6.39

Record `Nc1nc(N)c2c3c(ccc2n1)NCCC3` has Solute carrier family 2, facilitated glucose transporter member 1 (Homo sapiens) inhibition equal to -0.04

Record `COc1ccc(CN2CCC(NCc3cccc(C(F)(F)F)c3)CC2)cc1` has Solute carrier family 2, facilitated glucose transporter member 1 (Homo sapiens) inhibition equal to 13.2

Record `Cc1ccc(CNC(=O)c2cc3c(=O)n4ccccc4nc3n(CCCN3CCOCC3)c2=N)cc1` has Solute carrier family 2, facilitated glucose transporter member 1 (Homo sapiens) inhibition equal to 8.03

Record `Cc1cc(C)c(NC(=O)NC2CCN(CCCCCNC(=O)/C=C/c3ccc(Cl)c(Cl)c3)CC2)c(C)c1` has Solute carrier family 2, facilitated glucose transporter member 1 (Homo sapiens) inhibition equal to 4.35

Record `COc1ccc2c(-c3ccccc3)noc2c1` has Solute carrier family 2, facilitated glucose transporter member 1 (Homo sapiens) inhibition equal to 0.37

Record `CCN(CC)CCN(Cc1ccc(-c2ccc(Br)cc2)cc1)C(=O)Cn1c(CCc2cccc(F)c2F)nc(=O)c2ccccc21` has Solute carrier family 2, facilitated glucose transporter member 1 (Homo sapiens) inhibition equal to 2.2

Record COc1cccc(C2C(C(=O)Nc3ccccc3)=C(C)N=c3sc(=Cc4ccc(O)cc4)c(=O)n32)c1 (stereo not drawn) has Solute carrier family 2, facilitated glucose transporter member 1 (Homo sapiens) inhibition equal to 19.2

Record `O=C(Nc1ccc([N+](=O)[O-])cc1)c1nn(-c2ccccc2)cc1/N=C/c1cccc(O)c1` has Solute carrier family 2, facilitated glucose transporter member 1 (Homo sapiens) inhibition equal to -0.62

Record `c1ccc2c(CNCCCN3CCN(CCCNCc4c5ccccc5cc5ccccc45)CC3)c3ccccc3cc2c1` has Solute carrier family 2, facilitated glucose transporter member 1 (Homo sapiens) inhibition equal to 10.3

Record `CCCCN1CCN(CCCCNc2c3ccccc3nc3ccccc23)CC1` has Solute carrier family 2, facilitated glucose transporter member 1 (Homo sapiens) inhibition equal to 36.8

Record `CC(C)(C)c1ccc(-c2nnc(N)nc2N)cc1` has Solute carrier family 2, facilitated glucose transporter member 1 (Homo sapiens) inhibition equal to 1.1

Record `CCCc1ccccc1Nc1nc(C)cc(N(CC)CCCN2CCCCC2)n1` has Solute carrier family 2, facilitated glucose transporter member 1 (Homo sapiens) inhibition equal to 5.33

Record `O=C(c1cc2cccc([N+](=O)[O-])c2[nH]1)N1CCC(CCN2CCC(c3c[nH]c4ccccc34)CC2)CC1` has Solute carrier family 2, facilitated glucose transporter member 1 (Homo sapiens) inhibition equal to 1.52

Record `O=C(Nc1nc2cc(S(=O)(=O)NCCCN3CCOCC3)ccc2n1CCCn1ccnc1)c1ccc(Cl)cc1` has Solute carrier family 2, facilitated glucose transporter member 1 (Homo sapiens) inhibition equal to 5.51

Record `COc1ccc(CNCc2ccc(-c3cccc(-c4nc5cc(F)ccc5[nH]4)c3)cc2)cc1` has Solute carrier family 2, facilitated glucose transporter member 1 (Homo sapiens) inhibition equal to 1.04

Record `CC(C)(CNCc1ccc(C(F)(F)F)cc1)c1nc(-c2ccnc(N)n2)c(-c2ccc(Cl)c(O)c2)[nH]1` has Solute carrier family 2, facilitated glucose transporter member 1 (Homo sapiens) inhibition equal to 1.5

Record CC(=O)c1ccc2c(c1)CCN(CCC1CCC(NC(=O)c3cc4ccccc4[nH]3)CC1)CC2 (stereo not drawn) has Solute carrier family 2, facilitated glucose transporter member 1 (Homo sapiens) inhibition equal to 2.67

Record `Cc1cccc2nc(-c3ccc(-c4ccc(CN5CCC(CO)CC5)cc4)s3)[nH]c12` has Solute carrier family 2, facilitated glucose transporter member 1 (Homo sapiens) inhibition equal to 3.72

Record `c1ccc(CN2CCC(NCc3ccccc3-c3ccc(CNCc4ccc5c(c4)OCO5)cc3)CC2)cc1` has Solute carrier family 2, facilitated glucose transporter member 1 (Homo sapiens) inhibition equal to 11.8

Record COc1ccc(C2CC(c3cccs3)=NN2C(=O)CNc2ccccc2F)cc1OC (stereo not drawn) has Solute carrier family 2, facilitated glucose transporter member 1 (Homo sapiens) inhibition equal to 2.69

Record `Fc1ccc2[nH]c(-c3cccc(-c4ccc(CNCc5ccccc5)cc4)c3)nc2c1` has Solute carrier family 2, facilitated glucose transporter member 1 (Homo sapiens) inhibition equal to 7.37

Record Cc1cnn(-c2cccc(C(=O)NC3CCC(CCN4CCc5ccc(C#N)cc5CC4)CC3)c2)c1 (stereo not drawn) has Solute carrier family 2, facilitated glucose transporter member 1 (Homo sapiens) inhibition equal to 1.35

Record `Cc1noc(C)c1-c1cccc(CNCc2cccc(-c3ccc(-c4nc5cccc(C)c5[nH]4)s3)c2)c1` has Solute carrier family 2, facilitated glucose transporter member 1 (Homo sapiens) inhibition equal to 2.85

Record `Cc1cc(-c2cccc(CNC3CCCC3)c2)ccc1S(=O)(=O)NCCN1CCCC1` has Solute carrier family 2, facilitated glucose transporter member 1 (Homo sapiens) inhibition equal to 5

Record `c1cc(CNCCc2ccncc2)cc(-c2cccc(-c3nc4ccccc4[nH]3)c2)c1` has Solute carrier family 2, facilitated glucose transporter member 1 (Homo sapiens) inhibition equal to 13.1

Record `CN1CCCN(Cc2cccc(-c3cccc(NC(=O)c4cccc(C#N)c4)c3)c2)CC1` has Solute carrier family 2, facilitated glucose transporter member 1 (Homo sapiens) inhibition equal to 12.8

Record `COc1ccc2ccccc2c1C=NNc1ccnc2cc(Cl)ccc12` has Solute carrier family 2, facilitated glucose transporter member 1 (Homo sapiens) inhibition equal to 1.99

Record `CC(C)(C)NS(=O)(=O)c1cc(C(=O)N2CCC(CCN3CCC(O)(c4cccc(C(F)(F)F)c4)CC3)(c3cccc(F)c3)CC2)c(Cl)cc1F` has Solute carrier family 2, facilitated glucose transporter member 1 (Homo sapiens) inhibition equal to 1.73

Record `COc1cc(NC(=O)c2c(-c3c(Cl)cccc3Cl)noc2C)c(OC)cc1Cl` has Solute carrier family 2, facilitated glucose transporter member 1 (Homo sapiens) inhibition equal to 3

Record `Cc1cc(=O)[nH]c2cc(Nc3ccnc(Nc4cccc(C(N)=O)c4)n3)ccc12` has Solute carrier family 2, facilitated glucose transporter member 1 (Homo sapiens) inhibition equal to 3.02

Record `Cc1nc(C)c(-c2ccc(Oc3cc(Cl)cc(Cl)c3)cc2)c(O)c1Cl` has Solute carrier family 2, facilitated glucose transporter member 1 (Homo sapiens) inhibition equal to 2.68

Record `CCN(CC)Cc1cccc(-c2cc3c(-c4ccc(C(=O)O)c(C(C)C)c4)ccnc3[nH]2)c1OC` has Solute carrier family 2, facilitated glucose transporter member 1 (Homo sapiens) inhibition equal to 12
